B1: TRIM35 (parent)
chain: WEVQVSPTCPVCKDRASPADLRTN

variants of: B1; test: protein stability index of a GFP-peptide fusion (GPS, HEK-293T) (PSI 1-6); higher = more stable; conditions: c terminus: a fixed tail appended;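 further: lentivirally expressed fusions sorted by FACS into six bins by GFP to DsRed ratio, PSI derived from sequencing read proportions per bin multiplied by bin number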
The reader will find reported protein stability index values listed item by item below.
Response field accepts a number only; no unit should be typed.

Worked examples follow.
P7I | 1.97
T8D | 3.42
S17V | 2.23
D20C | 1.91
W1I | 2.08
T23K | 3.12

**Q:** Report protein stability index for `C12H`
**A:** 3.46
